- Subject of test: T1, Full-length isoform 165 of human VEGF-A (Homo sapiens, VEGF-A isoform 165, UniProt P15692-4)
- T1 construct: VEGF-A isoform 165, human; Immobilised by amine coupling for SPR; Made in HEK cells, so probably the secreted 165-residue form without signal peptide (surmise); source: HEK, recombinant, purified
- Protocol description: SPR; Biacore T200, 25 °C, PBS with 0.05% Tween 20 and 3.4 mM EDTA; VEGF-A amine-coupled to a CM-5 chip; Fab injected in single cycle kinetics with five increasing concentrations; double referenced; fit to a 1:1 Langmuir binding model
- Condition info: both partners purified
Measurement kind: pKd
Bear in mind: pKd is minus log10 of a mol/L concentration; give just that figure.

Below, each entry is followed by its recorded pKd result.
{"Binder": "bH1 Fab H3 variant 12_0327 (Fab, V domains shown, also in PDB 7KF2; also called design 12_0327; source: CHO-3E7, co-transfected, purified from supernatant (HisTrap IMAC, SEC Superdex-200)) VH: EVQLVESGGGLVQPGGSLRLSCAASGFNIKDTYIHWVRQAPGKGLEWVARIYPTNGYTRYADSVKGRFTISADTSKNTAYLQMNSLRAEDTAVYYCARGRKYSSSFDYWGQGTLVTVSS VL: DIQMTQSPSSLSASVGDRVTITCRASQDIPRSISGYVAWYQQKPGKAPKLLIYWGSYLYSGVPSRFSGSGSGTDFTLTISSLQPEDFATYYCQQHYTTPPTFGQGTKVEIK", "Test result": 5.80}
{"Binder": "bH1 Fab H3 variant 14_0472 (Fab, V domains shown, source: CHO-3E7, co-transfected, purified from supernatant (HisTrap IMAC, SEC Superdex-200)) VH: EVQLVESGGGLVQPGGSLRLSCAASGFNIKDTYIHWVRQAPGKGLEWVARIYPTNGYTRYADSVKGRFTISADTSKNTAYLQMNSLRAEDTAVYYCARGIAVAGAYYFDYWGQGTLVTVSS VL: DIQMTQSPSSLSASVGDRVTITCRASQDIPRSISGYVAWYQQKPGKAPKLLIYWGSYLYSGVPSRFSGSGSGTDFTLTISSLQPEDFATYYCQQHYTTPPTFGQGTKVEIK", "Test result": 4.23}
{"Binder": "bH1 Fab H3 variant 13_0346 (Fab, V domains shown, also in PDB 7KF0; also called design 13_0346; source: CHO-3E7, co-transfected, purified from supernatant (HisTrap IMAC, SEC Superdex-200)) VH: EVQLVESGGGLVQPGGSLRLSCAASGFNIKDTYIHWVRQAPGKGLEWVARIYPTNGYTRYADSVKGRFTISADTSKNTAYLQMNSLRAEDTAVYYCARGGSFYYYYMDVWGQGTLVTVSS VL: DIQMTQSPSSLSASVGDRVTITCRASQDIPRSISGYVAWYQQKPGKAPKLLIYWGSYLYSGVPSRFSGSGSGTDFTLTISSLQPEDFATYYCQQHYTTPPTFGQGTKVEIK", "Test result": 7.10}

Exam item: Looking for the measured pKd of bH1 Fab H3 variant 14_0480 (Fab, V domains shown, source: CHO-3E7, co-transfected, purified from supernatant (HisTrap IMAC, SEC Superdex-200)) VH: EVQLVESGGGLVQPGGSLRLSCAASGFNIKDTYIHWVRQAPGKGLEWVARIYPTNGYTRYADSVKGRFTISADTSKNTAYLQMNSLRAEDTAVYYCARGLERSGNYYLDYWGQGTLVTVSS VL: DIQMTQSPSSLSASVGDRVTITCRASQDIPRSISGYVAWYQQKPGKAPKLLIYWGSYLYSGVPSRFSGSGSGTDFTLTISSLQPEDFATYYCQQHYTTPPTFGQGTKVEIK , can you help?
Marked response: 5.57
